Assign viability, T/C to each entry below.
# Test system: 521955-158-R2-J5-PDC complex spheroid viability
# ASSAY_PROCEDURE: Anticancer human tumor 521955-158-R2-J5-PDC patient-derived pancreatic carcinoma cell line growth inhibition [GQUAD]
# TEST_CONDITIONS: second compound 0.0316 µM; first compound 0.00999 µM; hits give low values

// for each compound in input: emit viability, T/C
1. CC[C@@]1(O)C(=O)OCc2c1cc1n(c2=O)Cc2cc3c(CN(C)C)c(O)ccc3nc2-1 + Cc1cnc(CNC(=O)c2c(=O)c3ccc(N4CCCN(C)CC4)nc3n3c2sc2ccccc23)cn1
2. CCc1c2c(nc3ccc(O)cc13)-c1cc3c(c(=O)n1C2)COC(=O)[C@]3(O)CC + CN(C)c1ccc(Nc2c3ccc(NC(=O)CCN4CCCC4)cc3nc3cc(NC(=O)CCN4CCCC4)ccc23)cc1
3. CC[C@@]1(O)C(=O)OCc2c1cc1n(c2=O)Cc2cc3c(CN(C)C)c(O)ccc3nc2-1 + Cc1[nH]c2ccc(F)cc2c1-c1nc2c3cccnc3c3ncccc3c2[nH]1

["59.7%", "32.4%", "123%"]

----------
# Test system: 521955-158-R2-J5-PDC complex spheroid viability
# ASSAY_PROCEDURE: Anticancer human tumor 521955-158-R2-J5-PDC cell line growth inhibition [GQUAD];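 also: spheroids exposed to agents for one week before reading; 100% = DMSO vehicle control viability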
# TEST_CONDITIONS: second compound 3.16 µM; first compound 0.1 µM; hits give low values
Provide the reported viability, T/C of each item.
Give bare numbers, in %.

MOLECULE	viability, T/C (%)
C=CCn1c(=O)c2cnc(Nc3ccc(N4CCN(C)CC4)cc3)nc2n1-c1cccc(C(C)(C)O)n1 + CN(C)c1ccc(Nc2c3ccc(NC(=O)CCN4CCCC4)cc3nc3cc(NC(=O)CCN4CCCC4)ccc23)cc1	74.4

Provide viability, T/C for all items below, preserving their order.
1. CC1COCCN1c1cc(-c2ccnn2C)c2ccnc(-c3ccn[nH]3)c2n1 (stereo not given) + CN(C)c1ccc(Nc2c3ccc(NC(=O)CCN4CCCC4)cc3nc3cc(NC(=O)CCN4CCCC4)ccc23)cc1
2. CCCS(=O)(=O)Nc1ccc(F)c(C(=O)c2c[nH]c3ncc(-c4ccc(Cl)cc4)cc23)c1F + Cc1cnc(CNC(=O)c2c(=O)c3ccc(N4CCCN(C)CC4)nc3n3c2sc2ccccc23)cn1
3. C=CCn1c(=O)c2cnc(Nc3ccc(N4CCN(C)CC4)cc3)nc2n1-c1cccc(C(C)(C)O)n1 + Cc1cnc(CNC(=O)c2c(=O)c3ccc(N4CCCN(C)CC4)nc3n3c2sc2ccccc23)cn1

1: 28.4; 2: 14.3; 3: 16.3

Summary: CC(C)n1c(=O)n(C)c2cnc3cc(F)c(-c4ccc(OCCCN5CCCCC5)nc4)cc3c21 + Cc1[nH]c2ccc(F)cc2c1-c1nc2c3cccnc3c3ncccc3c2[nH]1 , 521955-158-R2-J5-PDC complex spheroid viability, viability, T/C = 110

----------
Assignment: determine reported viability, T/C for the given molecules.
# Test system: 521955-158-R2-J5-PDC complex spheroid viability
# ASSAY_PROCEDURE: Anticancer human tumor 521955-158-R2-J5-PDC cell line growth inhibition [GQUAD];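 also: spheroids exposed to agents for one week before reading; 100% = DMSO vehicle control viability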
# TEST_CONDITIONS: second compound 3.16 µM; first compound 3.16 µM; hits give low values
One number for each entry, in %.

In the examples that follow, each entry is paired with its recorded viability, T/C.
MOLECULE	READOUT_UNIT	viability, T/C
C#Cc1c(F)ccc2cc(O)cc(-c3ncc4c(N5CC6CCC(C5)N6)nc(OCC56CCCN5CC(F)C6)nc4c3F)c12 (stereo unspecified) + Cc1[nH]c2ccc(F)cc2c1-c1nc2c3cccnc3c3ncccc3c2[nH]1	%	62.7
O=C(NO)c1cnc(N2CCN(S(=O)(=O)c3ccc4ccccc4c3)CC2)nc1 + Cc1cnc(CNC(=O)c2c(=O)c3ccc(N4CCCN(C)CC4)nc3n3c2sc2ccccc23)cn1	%	0.07

Give viability, T/C for each of the items listed below.
1. CC(C)(O)C1CCC(Nc2ccc3ncc(-c4cccc(C(F)(F)F)c4)n3n2)CC1 (stereo unspecified) + CN(C)c1ccc(Nc2c3ccc(NC(=O)CCN4CCCC4)cc3nc3cc(NC(=O)CCN4CCCC4)ccc23)cc1
2. CCCS(=O)(=O)Nc1ccc(F)c(C(=O)c2c[nH]c3ncc(-c4ccc(Cl)cc4)cc23)c1F + CN(C)c1ccc(Nc2c3ccc(NC(=O)CCN4CCCC4)cc3nc3cc(NC(=O)CCN4CCCC4)ccc23)cc1
3. CC(C)(O)C1CCC(Nc2ccc3ncc(-c4cccc(C(F)(F)F)c4)n3n2)CC1 (stereo unspecified) + Cc1[nH]c2ccc(F)cc2c1-c1nc2c3cccnc3c3ncccc3c2[nH]1
4. O=C(NO)c1cnc(N2CCN(S(=O)(=O)c3ccc4ccccc4c3)CC2)nc1 + Cc1[nH]c2ccc(F)cc2c1-c1nc2c3cccnc3c3ncccc3c2[nH]1
5. C=CC(=O)N1CCN(c2nc(=O)n(-c3c(C)ccnc3C(C)C)c3nc(-c4c(O)cccc4F)c(F)cc23)C(C)C1 (stereo unspecified) + Cc1[nH]c2ccc(F)cc2c1-c1nc2c3cccnc3c3ncccc3c2[nH]1
6. COc1cc(C2c3cc4c(cc3C(OC3OC5COC(C)OC5C(O)C3O)C3COC(=O)C23)OCO4)cc(OC)c1O (stereo unspecified) + CN(C)c1ccc(Nc2c3ccc(NC(=O)CCN4CCCC4)cc3nc3cc(NC(=O)CCN4CCCC4)ccc23)cc1
7. O=C(c1cc(Cc2n[nH]c(=O)c3ccccc23)ccc1F)N1CCN(C(=O)C2CC2)CC1 + Cc1cnc(CNC(=O)c2c(=O)c3ccc(N4CCCN(C)CC4)nc3n3c2sc2ccccc23)cn1

13.8
174
16.5
0.29
121
26
16.5

Look at each molecule and report its viability, T/C.
1. COc1cccc2c1C(=O)c1c(O)c3c(c(O)c1C2=O)CC(O)(C(=O)CO)CC3OC1CC(N)C(O)C(C)O1 (stereo unspecified) + Cc1cnc(CNC(=O)c2c(=O)c3ccc(N4CCCN(C)CC4)nc3n3c2sc2ccccc23)cn1
2. CCCS(=O)(=O)Nc1ccc(F)c(C(=O)c2c[nH]c3ncc(-c4ccc(Cl)cc4)cc23)c1F + Cc1cnc(CNC(=O)c2c(=O)c3ccc(N4CCCN(C)CC4)nc3n3c2sc2ccccc23)cn1
3. O=c1[nH]cc(F)c(=O)[nH]1 + Cc1cnc(CNC(=O)c2c(=O)c3ccc(N4CCCN(C)CC4)nc3n3c2sc2ccccc23)cn1

0.12
20.7
17

Could I get viability, T/C for every one of these entries?
1. CC1COCCN1c1cc(-c2ccnn2C)c2ccnc(-c3ccn[nH]3)c2n1 (stereo unspecified) + Cc1[nH]c2ccc(F)cc2c1-c1nc2c3cccnc3c3ncccc3c2[nH]1
2. Cc1cccc(N(C)C(=O)C2C(O)CCN2c2nc(C)cc(C(F)(F)F)c2C#N)c1 (stereo unspecified) + CN(C)c1ccc(Nc2c3ccc(NC(=O)CCN4CCCC4)cc3nc3cc(NC(=O)CCN4CCCC4)ccc23)cc1
3. COc1ncnc(C2CC2)c1-c1ncc2cnn(Cc3ccc(-c4nc(C(F)(F)F)cn4C(C)C)cc3)c2n1 + Cc1cnc(CNC(=O)c2c(=O)c3ccc(N4CCCN(C)CC4)nc3n3c2sc2ccccc23)cn1
4. COc1ncnc(C2CC2)c1-c1ncc2cnn(Cc3ccc(-c4nc(C(F)(F)F)cn4C(C)C)cc3)c2n1 + CN(C)c1ccc(Nc2c3ccc(NC(=O)CCN4CCCC4)cc3nc3cc(NC(=O)CCN4CCCC4)ccc23)cc1
5. C#Cc1c(F)ccc2cc(O)cc(-c3ncc4c(N5CC6CCC(C5)N6)nc(OCC56CCCN5CC(F)C6)nc4c3F)c12 (stereo unspecified) + Cc1cnc(CNC(=O)c2c(=O)c3ccc(N4CCCN(C)CC4)nc3n3c2sc2ccccc23)cn1
6. COc1ccc([C@@H](O)c2cc(-c3ncnc4cc(N5CCOCC5)ccc34)c(F)cc2Cl)nn1 + Cc1cnc(CNC(=O)c2c(=O)c3ccc(N4CCCN(C)CC4)nc3n3c2sc2ccccc23)cn1
7. CC1COCCN1c1cc(C2(O)CC3CCC(C2)O3)c2cnn(-c3ccn[nH]3)c2n1 (stereo unspecified) + CN(C)c1ccc(Nc2c3ccc(NC(=O)CCN4CCCC4)cc3nc3cc(NC(=O)CCN4CCCC4)ccc23)cc1

21.6
93.4
13.7
114
0.11
15.2
34.1

Provide reported viability, T/C for each item, in the same order as listed.
1. O=c1[nH]cc(F)c(=O)[nH]1 + Cc1[nH]c2ccc(F)cc2c1-c1nc2c3cccnc3c3ncccc3c2[nH]1
2. O=C(c1cc(Cc2n[nH]c(=O)c3ccccc23)ccc1F)N1CCN(C(=O)C2CC2)CC1 + CN(C)c1ccc(Nc2c3ccc(NC(=O)CCN4CCCC4)cc3nc3cc(NC(=O)CCN4CCCC4)ccc23)cc1

[37.1, 80]

----------
# Test system: 521955-158-R2-J5-PDC complex spheroid viability
# ASSAY_PROCEDURE: Anticancer human tumor 521955-158-R2-J5-PDC cell line growth inhibition [GQUAD];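 also: spheroids exposed to agents for one week before reading; 100% = DMSO vehicle control viability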
# TEST_CONDITIONS: second compound 3.16 µM; first compound 0.316 µM; hits give low values
METRIC_NAME: viability, T/C (%)
One number for each entry, in %.

Check out these entries, answers already filled in.
MOLECULE	TEST_TARGET	viability, T/C [%]
C#Cc1c(F)ccc2cc(O)cc(-c3ncc4c(N5CC6CCC(C5)N6)nc(OCC56CCCN5CC(F)C6)nc4c3F)c12 (centres undefined) + CN(C)c1ccc(Nc2c3ccc(NC(=O)CCN4CCCC4)cc3nc3cc(NC(=O)CCN4CCCC4)ccc23)cc1	521955-158-R2-J5-PDC complex spheroid viability	40.5
O=C(c1cc(Cc2n[nH]c(=O)c3ccccc23)ccc1F)N1CCN(C(=O)C2CC2)CC1 + Cc1cnc(CNC(=O)c2c(=O)c3ccc(N4CCCN(C)CC4)nc3n3c2sc2ccccc23)cn1	521955-158-R2-J5-PDC complex spheroid viability	21.1
CC(=O)O[C@H]1C(=O)[C@@]2(C)[C@H]([C@H](OC(=O)c3ccccc3)[C@]3(O)C[C@H](OC(=O)[C@H](O)[C@@H](NC(=O)c4ccccc4)c4ccccc4)C(C)=C1C3(C)C)[C@]1(OC(C)=O)CO[C@@H]1C[C@@H]2O + CN(C)c1ccc(Nc2c3ccc(NC(=O)CCN4CCCC4)cc3nc3cc(NC(=O)CCN4CCCC4)ccc23)cc1	521955-158-R2-J5-PDC complex spheroid viability	30.3

Entry CC(C)n1c(=O)n(C)c2cnc3cc(F)c(-c4ccc(OCCCN5CCCCC5)nc4)cc3c21 + Cc1cnc(CNC(=O)c2c(=O)c3ccc(N4CCCN(C)CC4)nc3n3c2sc2ccccc23)cn1 ; viability, T/C = 19.6
